assayed-system: human CaMKIIδ (Homo sapiens)
Construct: Full-length, glutathione-S-transferase(GST)-tagged, human CaMKIIδ was purchased from Carna Biosciences; purchased Carna Biosciences (CaMKIIδ); Wako Pure Chemical Industries (calmodulin) 02-111
experiment-summary: Evaluation of in vitro CaMKII inhibitory activity (binding assay, TR-FRET)
reported-conditions: in vitro CaMKII inhibitory activity (binding assay), human CaMKIIδ; read-out: Act

# molecule, IC50
data = [
    ("C[C@@H](Cn1cnnn1)Oc1cccc(-c2ccc3ncn(-c4cc(Cl)ccc4C#N)c3n2)n1 [compound 442]", "< 10 nM"),
    ("C[C@@H](Cn1cnnn1)Oc1cc(-c2ccc3ncc(-c4nccc(N(C(=O)OC(C)(C)C)C(=O)OC(C)(C)C)c4C#N)n3n2)ccc1F [compound 232]", "< 10 nM"),
    ("COc1ncc(Cl)cc1-c1cnc2ccc(-c3cccc(O[C@@H](C)Cn4cnnn4)c3)nn12 [compound 323]", "< 10 nM"),
    ("C[C@@H](Cn1cnnn1)Oc1cc(-c2ccc3ncc(-c4[nH]ccc(=O)c4C#N)n3n2)ccc1F [compound 431]", "> 100 nM"),
    ("C[C@@H](Cn1cnnn1)Oc1cc(-c2ccc3ncc(-c4cc(N=S5(=O)CCCC5)ccc4C#N)n3n2)ccc1F [compound 264]", "> 100 nM"),
    ("C[C@@H](Cn1cnnn1)Oc1cccc(-c2ccc3ncc(-c4nccc(OCF)c4C#N)n3n2)c1 [Example 466]", "< 10 nM"),
    ("C[C@@H](Cn1cnnn1)Oc1ccc(F)c(-c2ccc3ncc(-c4ncccc4C#N)n3n2)c1 [compound 293]", "10 to 100 nM"),
    ("C[C@@H](Cn1cnnn1)Oc1cccc(-c2ccc3ncc(-c4ccccc4CN(C)C)n3n2)c1 [compound 307]", "10 to 100 nM"),
    ("COCc1cc(F)cc(-c2cnc3ccc(-c4cccc(O[C@@H](C)Cn5cnnn5)n4)nn23)c1C#N [compound 462]", "< 10 nM"),
    ("C[C@@H](Cn1cnnn1)Oc1cccc(-c2ccc3ncc(-c4cc(F)c(F)cc4C#N)n3n2)n1 [compound 433]", "< 10 nM"),
    ("C[C@@H](Cn1cnnn1)Oc1cccc(-c2ccc3ncc(-c4nc(F)ccc4C#N)n3n2)c1 [Example 467]", "< 10 nM"),
    ("C[C@@H](Cn1cnnn1)Oc1cccc(-c2ccc3ncc(-c4cc(F)cnc4OCC(F)F)n3n2)c1 [compound 336]", "< 10 nM"),
    ("C[C@@H](Cn1cnnn1)Oc1cccc(-c2ccc3ncc(-c4cccn(CCOCC(F)(F)F)c4=O)n3n2)c1 [compound 341]", "< 10 nM"),
    ("C[C@@H](Cn1cnnn1)Oc1cccc(-c2ccc3ncc(-c4nccc(NCC(F)F)c4C#N)n3n2)c1 [compound 367]", "10 to 100 nM"),
    ("COc1cc(-c2cnc3ccc(-c4cccc(O[C@@H](C)Cn5cnnn5)n4)nn23)c(C#N)cn1 [compound 463]", "< 10 nM"),
    ("COc1cc(F)cc(-c2cnc3ccc(-c4cccc(O[C@@H](C)Cn5cncn5)n4)nn23)c1C#N [Example 452]", "< 10 nM"),
    ("C[C@@H](Cn1cnnn1)Oc1cc(-c2ccc3ncc(-c4nccc(N)c4C#N)n3n2)ccc1F [compound 234]", "< 10 nM"),
    ("C[C@@H](Cn1cnnn1)Oc1cccc(-c2ccc3ncn(-c4cc(F)cc(C(F)F)c4C#N)c3n2)n1 [compound 407]", "10 to 100 nM"),
    ("COc1cc(F)c(C#N)c(-c2cnc3ccc(-c4cccc(O[C@@H](C)Cn5cnnn5)n4)nn23)c1 [compound 408]", "< 10 nM"),
]
